# System: Escherichia coli TOP10;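 further: peptides expressed intracellularly from a pBAD plasmid library in pooled LB shake-flask culture, induced with 0.3% L-arabinose, DNA abundance read by NGS, three biological replicates, DESeq2 with apeglm shrinkage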
# Method Description: shrunken log2 fold change of peptide-encoding DNA abundance (4.5 h post-induction vs induction); higher = less antimicrobial activity (less host growth inhibition)
# Run Conditions: time post-induction: 4.5 h; library: site-saturation at positions 5, 18, 19, 20
Value Type: shrunken log2 fold change
Respond numerically, and do not add a unit to the figure.

Task item: What value of shrunken log2 fold change has been reported for the following sequence? RRIRYRPPRLPRPRPRPKLYPRP
Reply: -0.65

Task item: What value of shrunken log2 fold change has been reported for the following sequence? RRIRQRPPRLPRPRPRPQAWPRP
Reply: 0.0305

Task item: What value of shrunken log2 fold change has been reported for the following sequence? RRIRTRPPRLPRPRPRPLCFPRP
Reply: -0.326

Task item: What value of shrunken log2 fold change has been reported for the following sequence? RRIRLRPPRLPRPRPRPLVTPRP
Reply: 0.000277

Task item: What value of shrunken log2 fold change has been reported for the following sequence? RRIRVRPPRLPRPRPRPRLIPRP
Reply: -0.293

Task item: What value of shrunken log2 fold change has been reported for the following sequence? RRIRYRPPRLPRPRPRPTGDPRP
Reply: 0.00498

Task item: What value of shrunken log2 fold change has been reported for the following sequence? RRIRTRPPRLPRPRPRPCPGPRP
Reply: -0.232

Task item: What value of shrunken log2 fold change has been reported for the following sequence? RRIRRRPPRLPRPRPRPRSTPRP
Reply: 0.36
